Origin of the recorded values: patent US20240199623A1

- system name: human wild type-CFTR (Homo sapiens, UniProt P13569)
- Sequence (P13569 whole entry): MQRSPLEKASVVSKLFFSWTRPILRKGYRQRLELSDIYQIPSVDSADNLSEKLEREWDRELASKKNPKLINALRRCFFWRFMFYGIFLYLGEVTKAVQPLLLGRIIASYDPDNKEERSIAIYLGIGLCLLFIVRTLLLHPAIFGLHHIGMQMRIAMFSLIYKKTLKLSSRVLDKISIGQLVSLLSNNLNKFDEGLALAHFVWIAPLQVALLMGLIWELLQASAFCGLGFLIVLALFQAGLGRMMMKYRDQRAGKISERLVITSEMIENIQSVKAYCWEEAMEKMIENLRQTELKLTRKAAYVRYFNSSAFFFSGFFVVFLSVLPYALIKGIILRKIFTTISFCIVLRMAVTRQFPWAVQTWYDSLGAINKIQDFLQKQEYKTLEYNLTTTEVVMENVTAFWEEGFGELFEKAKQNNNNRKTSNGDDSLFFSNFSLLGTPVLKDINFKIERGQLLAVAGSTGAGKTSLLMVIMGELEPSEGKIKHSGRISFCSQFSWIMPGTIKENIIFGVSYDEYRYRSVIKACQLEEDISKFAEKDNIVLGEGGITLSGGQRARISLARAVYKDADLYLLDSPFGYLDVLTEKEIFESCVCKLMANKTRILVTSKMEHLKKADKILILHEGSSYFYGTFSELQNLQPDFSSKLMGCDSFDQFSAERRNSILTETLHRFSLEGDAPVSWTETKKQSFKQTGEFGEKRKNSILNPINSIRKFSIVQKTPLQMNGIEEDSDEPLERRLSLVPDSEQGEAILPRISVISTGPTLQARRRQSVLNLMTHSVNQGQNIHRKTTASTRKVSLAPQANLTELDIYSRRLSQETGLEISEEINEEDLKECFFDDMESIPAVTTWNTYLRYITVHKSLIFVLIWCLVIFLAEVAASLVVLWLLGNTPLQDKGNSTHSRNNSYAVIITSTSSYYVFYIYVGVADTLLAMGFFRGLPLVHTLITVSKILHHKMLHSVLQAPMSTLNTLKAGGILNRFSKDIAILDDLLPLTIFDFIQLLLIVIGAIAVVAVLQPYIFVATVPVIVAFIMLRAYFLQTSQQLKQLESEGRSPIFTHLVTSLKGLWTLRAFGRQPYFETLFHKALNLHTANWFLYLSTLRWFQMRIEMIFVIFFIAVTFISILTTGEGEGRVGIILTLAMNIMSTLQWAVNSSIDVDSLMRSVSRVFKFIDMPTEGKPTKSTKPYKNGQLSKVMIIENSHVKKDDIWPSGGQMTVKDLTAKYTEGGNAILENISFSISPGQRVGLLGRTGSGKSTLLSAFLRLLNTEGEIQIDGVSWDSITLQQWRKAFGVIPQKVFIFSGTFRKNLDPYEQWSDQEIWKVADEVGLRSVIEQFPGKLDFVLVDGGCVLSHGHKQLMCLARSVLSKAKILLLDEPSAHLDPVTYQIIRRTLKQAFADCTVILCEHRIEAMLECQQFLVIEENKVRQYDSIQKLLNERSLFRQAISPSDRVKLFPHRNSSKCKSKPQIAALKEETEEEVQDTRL
- test method notes: Cell-based YFP assay
- Set-up: expressed in transfected cells; host or cells: CHO-K1 (Chinese hamster ovary)
- stated conditions: CHO-K1 cells expressing human wild type-CFTR and YFP-H148Q/I152L; forskolin 20 μM = 100% activity; read-out: Cell-based YFP Assay (EC50) Concentration Range
pEC50: −log10 of the molar value.
reported endpoint: pEC50

// worked examples, pEC50 included
- molecule: "COc1ccc(-c2ccnc3cc(C(=O)N4CCN(C(=O)c5ccsc5)[C@@H](C)C4)nn23)cc1OC [Compound 379]"
  pEC50: "> 6.70"
- molecule: "CCOc1ccc(NC(=O)c2cc3nccc(-c4ccc(OC)cc4F)n3n2)cc1 [Compound 296]"
  pEC50: "≤ 5.70"
- molecule: "COc1ccc(-c2ccnc3cc(C(=O)Nc4ccc(C(=O)N(C)CCN(C)C)cc4)nn23)cc1OC [Compound 219]"
  pEC50: "≤ 5.70"
- molecule: "COc1ccc(-c2ccnc3cc(C(=O)N4CCN(C5CC5)CC4)nn23)cc1OC [Compound 184]"
  pEC50: "5.70 to 6.70"
- molecule: "COC(=O)c1ccc(NC(=O)c2cc3nccc(-c4cc(OC)c(OC)c(OC)c4)n3n2)cc1 [Compound 32]"
  pEC50: "> 6.70"
- molecule: "COc1ccc(-c2ccnc3cc(C(=O)Nc4ccc(OC)c(F)c4F)nn23)cc1OC [Compound 326]"
  pEC50: "5.70 to 6.70"

Items follow; give pEC50 for each.
1. COc1ccc(-c2ccnc3cc(C(=O)Nc4ccc(NC(=O)[C@H](C)N)cc4)nn23)cc1OC [Compound 284]
2. COc1ccc(-c2ccnc3cc(C(=O)Nc4ccc(C(=O)N5CCOCC5)c(Cl)c4)nn23)cc1OC [Compound 160]
3. COc1ccc(-c2ccnc3cc(C(=O)Nc4ccc(O)cn4)nn23)cc1OC [Compound 327]
4. COc1ccc(-c2ccnc3cc(C(=O)Nc4ccc(C(=O)N[C@@H](CCSC)C(=O)O)cc4)nn23)cc1OC [Compound 87]

Response:
> 6.70
5.70 to 6.70
> 6.70
≤ 5.70

---

- system name: UniProt P13569
- test method notes: Cell-based YFP assay
- Parameters: expressed in transfected cells; host or cells: CHO-K1 (Chinese hamster ovary)
- stated conditions: CHO-K1 cells expressing human wild type-CFTR and YFP-H148Q/I152L; forskolin 20 μM = 100% activity; read-out: Cell-based YFP Assay (EC50) Concentration Range
pEC50: −log10 of the molar value.
Kindly supply the reported pEC50 values for the records listed here.

// worked examples, pEC50 included
- smiles representation: "O=C(Nc1ccc(N2CCOCC2)cn1)c1cc2nccc(-c3ccc(OC(F)(F)F)c(Cl)c3)n2n1"
  pEC50: "≤ 5.70"
- smiles representation: "COc1ccc(-c2ccnc3cc(C(=O)NC4CCN(C[C@@H](O)CO)CC4)nn23)cc1OC"
  pEC50: "≤ 5.70"
- smiles representation: "COc1ccc(-c2ccnc3cc(C(=O)Nc4ccc(C(=O)N5CCOCC5)cn4)nn23)cc1OC"
  pEC50: "> 6.70"
- smiles representation: "COc1ccc(-c2ccnc3cc(C(=O)Nc4ccccn4)nn23)cc1OC"
  pEC50: "> 6.70"
- smiles representation: "COc1ccc(-c2ccnc3cc(C(=O)Nc4ccc(N5CCN(C)CC5)cn4)nn23)cc1OC"
  pEC50: "> 6.70"
- smiles representation: "COc1ccc(-c2ccnc3cc(C(=O)N4CC(NC(=O)OC(C)(C)C)C4)nn23)cc1OC"
  pEC50: "5.70 to 6.70"

Items follow; give pEC50 for each.
1. COc1ccc(-c2ccnc3cc(C(=O)Nc4ccc(C(N)=O)cc4)nn23)cc1OC
2. CCC[C@H]1CN(C(=O)c2cc3nccc(-c4ccc(OC)c(OC)c4)n3n2)CCN1
3. COc1ccc(-c2ccnc3cc(C(=O)Nc4ccc(C(=O)OCCN5CCCC5)cc4)nn23)cc1OC
4. COc1ccc(-c2ccnc3cc(C(=O)Nc4ccc(C(=O)N[C@@H](C)C(=O)O)cc4)nn23)cc1OC
5. CCOc1ccc(NC(=O)c2cc3nccc(-c4ccc(F)c(OC)c4)n3n2)cc1
6. COc1ccc(-c2ccnc3cc(C(=O)N4CCN(C(=O)c5cccc(F)c5)[C@@H](C)C4)nn23)cc1OC
7. COc1ccc(-c2ccnc3cc(C(=O)Nc4ccc(C(=O)N5CCC[C@H]5C(=O)O)cc4)nn23)cc1OC

Response:
["> 6.70", "5.70 to 6.70", "≤ 5.70", "5.70 to 6.70", "5.70 to 6.70", "5.70 to 6.70", "≤ 5.70"]

Items follow; give pEC50 for each.
1. COc1ccc(C(=O)N2CCN(C(=O)c3cc4nccc(-c5ccc(OC)c(OC)c5)n4n3)C[C@@H]2C)cc1
2. CCOC(=O)C1(NC(=O)c2cc3nccc(-c4ccc(OC)c(OC)c4)n3n2)CC1
3. COc1ccc(-c2ccnc3cc(C(=O)Nc4ccc(NC(=O)CNC(=O)OC(C)(C)C)cc4)nn23)cc1OC

Response:
5.70 to 6.70
5.70 to 6.70
> 6.70

Items follow; give pEC50 for each.
1. COc1ccc(-c2ccnc3cc(C(=O)Nc4ccc(C(=O)NCC(=O)O)cc4)nn23)cc1OC
2. COc1ccc(-c2ccnc3cc(C(=O)Nc4ccc(C(=O)OCc5ccccc5)cn4)nn23)cc1OC
3. CCOc1ccc(NC(=O)c2cc3nccc(-c4cc(OC)cc(OC)c4)n3n2)cc1
4. COc1ccc(-c2ccnc3cc(C(=O)Nc4ccc(C(=O)N5CCN(C(C)C)CC5)cc4)nn23)cc1OC
5. COc1ccc(-c2ccnc3cc(C(=O)Nc4ccc(N5CCN(C)CC5)cc4)nn23)cc1OC
6. COC(=O)c1ccc(NC(=O)c2cc3nccc(-c4ccc(OC)c(OC)c4)n3n2)cc1F
7. COc1ccc(-c2ccnc3cc(C(=O)Nc4ccc(C)cn4)nn23)cc1OC

Response:
1: ≤ 5.70; 2: > 6.70; 3: ≤ 5.70; 4: 5.70 to 6.70; 5: > 6.70; 6: > 6.70; 7: > 6.70

// sample COc1ccc(-c2ccnc3cc(C(=O)Nc4ccc(N5CCOCC5)cn4)nn23)c(F)c1 , its pEC50 was ≤ 5.70

---

- test method notes: Phosphate-buffered saline (PBS) solubility of compounds
- Format: physicochemical
- stated conditions: aqueous buffer, thermodynamic from solid, PBS pH 7.5, 0.5 mg/mL, vortexed 90 min, filtered, LC-MS/MS, read-out: Solubility Range
reported endpoint: solubility at 90 min

// worked examples, solubility at 90 min included
- compound: "COc1ccc(-c2ccnc3cc(C(=O)Nc4ccc(C(=O)N5CCOCC5)cc4F)nn23)cc1OC [Compound 157]"
  solubility at 90 min: "< 0.1 µg/mL"
- compound: "COc1ccc(-c2ccnc3cc(C(=O)Nc4ccc(C(=O)O)cc4Cl)nn23)cc1OC [Compound 106]"
  solubility at 90 min: "< 0.1 µg/mL"
- compound: "COc1ccc(-c2ccnc3cc(C(=O)Nc4ccc(O)cc4)nn23)cc1OC [Compound 15]"
  solubility at 90 min: "< 0.1 µg/mL"
- compound: "COc1ccc(-c2ccnc3cc(C(=O)NC45CCC(C(=O)N6CCOCC6)(CC4)CC5)nn23)cc1OC [Compound 186]"
  solubility at 90 min: "> 10 µg/mL"
- compound: "COc1ccc(-c2ccnc3cc(C(=O)Nc4cccc(C(=O)N5CCN(C(=O)OC(C)(C)C)CC5)c4)nn23)cc1OC [Compound 56]"
  solubility at 90 min: "< 0.1 µg/mL"
- compound: "COc1ccc(-c2ccnc3cc(C(=O)N4CCC(NC(=O)OC(C)(C)C)CC4)nn23)cc1OC [Compound 100]"
  solubility at 90 min: "0.1 to 10 µg/mL"
- compound: "COC(=O)c1ccc(CNC(=O)c2cc3nccc(-c4ccc(OC)c(OC)c4)n3n2)cc1 [Compound 12]"
  solubility at 90 min: "< 0.1 µg/mL"
- compound: "COc1ccc(-c2ccnc3cc(C(=O)NC45CC(C(=O)N6CCN(C(=O)OC(C)(C)C)CC6)(C4)C5)nn23)cc1OC [Compound 92]"
  solubility at 90 min: "< 0.1 µg/mL"
- compound: "COC(=O)c1ccc(NC(=O)c2cc3nccc(-c4cc(OC)c(OC)c(OC)c4)n3n2)cc1 [Compound 32]"
  solubility at 90 min: "< 0.1 µg/mL"
- compound: "COc1ccc(-c2ccnc3cc(C(=O)Nc4ccc(C(=O)N5CCN(C(C)C)CC5)cc4)nn23)cc1OC [Compound 159]"
  solubility at 90 min: "0.1 to 10 µg/mL"

Items follow; give solubility at 90 min for each.
1. COc1ccc(NC(=O)c2cc3nccc(-c4ccc(OC)c(OC)c4)n3n2)cc1 [Compound 6]
2. COc1ccc(-c2ccnc3cc(C(=O)Nc4ccc(C(=O)N5CCN(C(=O)OC(C)(C)C)CC5)cc4)nn23)cc1OC [Compound 51]
3. COc1ccc(-c2ccnc3cc(C(=O)N[C@H]4CC[C@@H](C(=O)O)CC4)nn23)cc1OC [Compound 19]
4. COC(=O)c1ccc(NC(=O)c2cc3nccc(-c4ccc(OC)c(Cl)c4)n3n2)cc1 [Compound 39]

Response:
1. < 0.1 µg/mL
2. < 0.1 µg/mL
3. > 10 µg/mL
4. < 0.1 µg/mL
